Where these numbers come from: patent US20060258598A1

system: cellular calpains in C2C12 myoblasts; assay: Calpain inhibition assay in C2C12 myoblasts; format: cell-based; conditions: 2 h incubation, calcium ionophore Br-A-23187, read-out: Calp I IC50 Myoblast
Kindly state IC50 for each of the entries shown.
Answers are plain numbers, in µM.

Solved cases below.
{"columns": ["compound", "readout_units", "IC50"],
 "data": [
  ["CCNC(=O)C(=O)[C@H](Cc1ccc(C(C)(C)C)cc1)NC(=O)[C@@H](NC(=O)CCCCC1CCSS1)C(C)C (stereo partly drawn)", "µM", 1.8],
  ["CCNC(=O)C(=O)[C@H](Cc1ccc(Br)cc1)NC(=O)[C@H](CC(C)C)NC(=O)CNC(=O)CCCCC1CCS[S+]1[O-] (stereo partly drawn)", "µM", 7.5],
  ["CCNC(=O)C(=O)[C@H](Cc1cccs1)NC(=O)[C@H](CC(C)C)NC(=O)CCCCC1CCSS1 (stereo partly drawn)", "µM", 2.5],
  ["CCNC(=O)C(=O)[C@H](Cc1ccc(OC)cc1)NC(=O)[C@@H](NC(=O)C1(NC(=O)CCCCC2CCSS2)CC1)C(C)C (stereo partly drawn)", "µM", 3.2],
  ["CCNC(=O)C(=O)[C@H](Cc1ccc(Cl)cc1)NC(=O)[C@H](CC(C)(C)C)NC(=O)CCCCC1CCS[S+]1[O-] (stereo partly drawn)", "µM", 4],
  ["CCNC(=O)C(=O)[C@H](Cc1ccc(F)c(F)c1)NC(=O)[C@H](CC(C)C)NC(=O)CCCCC1CCSS1 (stereo partly drawn)", "µM", 0.4],
  ["CCNC(=O)C(=O)[C@H](Cc1ccc([N+](=O)[O-])cc1)NC(=O)[C@H](CC(C)C)NC(=O)CCCCC1CCSS1 (stereo partly drawn)", "µM", 8],
  ["CCNC(=O)C(=O)[C@H](Cc1ccc(Cl)cc1Cl)NC(=O)[C@@H](NC(=O)CCCCC1CCSS1)C(C)C (stereo partly drawn)", "µM", 40]
]}

State recorded IC50 for all listed compounds.
1. CCNC(=O)C(=O)[C@H](Cc1ccc(OC)cc1)NC(=O)[C@H](CC(C)C)NC(=O)CCCCC1CCSS1 (stereo partly drawn)
2. CCNC(=O)C(=O)[C@H](Cc1ccc(Cl)cc1)NC(=O)[C@H](CC(C)C)NC(=O)CNC(=O)CCCCC1CCS[S+]1[O-] (stereo partly drawn)
3. CCNC(=O)C(=O)[C@H](Cc1ccc(Br)cc1)NC(=O)[C@@H](NC(=O)CCCCC1CCS[S+]1[O-])C(C)C (stereo partly drawn)
4. CCNC(=O)C(=O)[C@H](Cc1ccc(Cl)cc1Cl)NC(=O)[C@@H](NC(=O)CCCCC1CCS[S+]1[O-])C(C)C (stereo partly drawn)
5. CCNC(=O)C(=O)[C@H](Cc1ccccc1)NC(=O)[C@H](CC(C)C)NC(=O)CCCCC1CCS[S+]1[O-] (stereo partly drawn)
6. CCNC(=O)C(=O)[C@H](Cc1ccc(Cl)cc1)NC(=O)[C@@H](NC(=O)CCC1CCCS1)C(C)C (stereo partly drawn)
7. CCNC(=O)C(=O)[C@H](Cc1ccc(Br)cc1)NC(=O)[C@H](CC(C)C)NC(=O)CNC(=O)CCCCC1CCSS1 (stereo partly drawn)
8. CCNC(=O)C(=O)[C@H](Cc1ccccc1)NC(=O)[C@H](CC(C)C)NC(=O)CNC(=O)CCCCC1CCSS1 (stereo partly drawn)

A)
1
2.5
8
20
20
3.2
1.5
4.5

Return reported IC50 values for all items listed beneath this line.
1. CCNC(=O)C(=O)[C@H](Cc1ccc(Cl)cc1)NC(=O)[C@@H](NC(=O)CCCCC1SC[C@@H]2NC(=O)N[C@H]12)C(C)C (stereo partly drawn)
2. CCNC(=O)C(=O)[C@H](Cc1ccc(C(F)(F)F)cc1)NC(=O)[C@H](CC(C)C)NC(=O)CCCCC1CCSS1 (stereo partly drawn)
3. CCNC(=O)C(=O)[C@H](Cc1ccc(Br)cc1)NC(=O)[C@@H](NC(=O)CCCCC1CCSS1)C(C)C (stereo partly drawn)
4. CCNC(=O)C(=O)[C@H](Cc1ccc(OC)cc1)NC(=O)[C@@H](NC(=O)c1ccc(NC(=O)CCCCC2CCSS2)cc1)C(C)C (stereo partly drawn)
5. CCNC(=O)C(=O)[C@H](Cc1ccc(Br)cc1)NC(=O)[C@H](CC(C)C)NC(=O)CCCCC1CCSS1 (stereo partly drawn)
6. CC(C)[C@H](NC(=O)CCCCC1CCSS1)C(=O)N[C@@H](Cc1ccc(Br)cc1)C(=O)C(=O)NC1CCCCC1 (stereo partly drawn)
7. CCNC(=O)C(=O)[C@H](Cc1ccc(OC)cc1)NC(=O)[C@@H](NC(=O)CCCCC1CCC[S+]1[O-])C(C)C (stereo partly drawn)
8. CCNC(=O)C(=O)[C@H](Cc1ccc(Cl)cc1Cl)NC(=O)[C@H](CC(C)C)NC(=O)CCCCC1CCSS1 (stereo partly drawn)

A)
[5, 1.1, 0.2, 0.4, 0.5, 0.31, 1.2, 3]

Please state, for each entry, its recorded IC50.
1. CCNC(=O)C(=O)[C@H](Cc1ccc(C)cc1)NC(=O)[C@@H](NC(=O)CCCCC1CCS[S+]1[O-])C(C)C (stereo partly drawn)
2. CCNC(=O)C(=O)[C@H](Cc1ccc(C)cc1)NC(=O)[C@H](CC(C)C)NC(=O)CCCCC1CCS[S+]1[O-] (stereo partly drawn)
3. CCNC(=O)C(=O)[C@H](Cc1ccc(Cl)cc1)NC(=O)[C@@H](NC(=O)CNC(=O)CCCCC1SC[C@@H]2NC(=O)N[C@H]12)C(C)C (stereo partly drawn)

A)
1
1.2
3.5
